value.type: melting point

Before answering, review these 8 worked examples.
CCCNC(=S)NCCCn1c(CCOC)nc2c(N)nc3ccccc3c21 : 172 to 173 °C
CC12C=CC(=O)C=C1C(N)CC1C2CCC2(C)C(=O)CCC12 (stereo not drawn) : 186 to 191 °C
CC=CC(=O)Oc1cc(C)nc(C(Cl)(Cl)Cl)n1 : 55 °C
O=C(CNC(=O)OCc1ccccc1)Nc1ccccc1C(=O)c1cccs1 : 115 to 116 °C
CCC(CC)n1cc(Br)nc(N2CCc3cc(OC)cc(C)c32)c1=O : 152 to 154 °C
OCc1cc2c(Oc3ccc(Cl)cc3)cncc2s1 : 90 to 91 °C
CC(C)CN(CC(=O)O)S(=O)(=O)c1ccc(N2CCC(c3ccccc3)CC2)cc1 : 140 to 143 °C
Clc1cccc(CC[C@H]2CNCCN2)c1 : 93 to 97 °C

Report measured melting point; entry is `CCOC(=O)Nc1cc2c3ccccc3n(CC)c2cn1` 217 to 218 °C

Report measured melting point; entry is `Cc1c(Cl)csc1-c1nc(-c2c(F)cccc2Cl)nn1C` 117 to 118 °C

Report measured melting point; entry is `c1cncc(CNC2=Nc3ccccc3Nc3ccccc32)c1` 150 to 152 °C

Report measured melting point; entry is Cn1cccc1C(=O)NCc1cccc2c1C(=O)N(C1CCC(=O)NC1=O)C2=O (stereo not drawn) > 260 °C

Report measured melting point; entry is `CCN(CC)C(=O)n1ccc(S(=O)(=O)c2ccc(Br)cc2C(F)(F)F)n1` 62 to 65 °C

Report measured melting point; entry is `CN1CCc2nc(C(=O)N[C@@H]3C[C@@H](C(=O)O)CC[C@H]3NC(=O)c3cc4cc(Cl)ccc4[nH]3)sc2C1` 234 to 236 °C

Report measured melting point; entry is `CCN(CC)Cc1nc2cc(OC)c(OC)cc2c(-c2ccc(OC)c(OC)c2)c1C(=O)CC(C)C` 153 to 154 °C

Report measured melting point; entry is `CCC1(CC)OC(c2ccc(S(C)(=O)=O)cc2)=C(c2ccccc2)C1=O` 139 to 140 °C

Report measured melting point; entry is CCOC1=CC(=O)N([C@@H]2c3cc(C#N)ccc3OC(C)(C)[C@H]2OC(C)=O)C1 (relative stereo) 156 °C

Report measured melting point; entry is CCN(CC(C)Nc1c(C)cccc1C)C(C)=O (stereo not drawn) 58 to 60 °C

# credit: a melting point compilation (Tetko et al.; mined from patent text by program, amines drawn as free bases though some values may be those of a salt)
